Collected Kd values appear next to each entry.
- target of assay: T1, recombinant human domain 1-3His6 of the cation-independent mannose-6-phosphate receptor (human, UniProt P11717 41-467)
- T1 construct: Biotinylated (NHS-PEG4-biotin) for BLI; Glycosylated; also called hDom1-3His6; hCI-M6PRD1-D3
- procedure text: BLI at pH 7.4, 1st of 2 repeats
property: Kd (nM)

- anti-CI-M6PR VHH1 (VHH, His6-tagged; made in Pichia pastoris, later also in E. coli WK6) VHH: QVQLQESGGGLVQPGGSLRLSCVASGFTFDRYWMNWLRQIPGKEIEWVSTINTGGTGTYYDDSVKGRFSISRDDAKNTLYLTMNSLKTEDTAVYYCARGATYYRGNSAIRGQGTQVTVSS: 7.44
- anti-CI-M6PR VHH7 (VHH, His6-tagged (Pichia pastoris)) VHH: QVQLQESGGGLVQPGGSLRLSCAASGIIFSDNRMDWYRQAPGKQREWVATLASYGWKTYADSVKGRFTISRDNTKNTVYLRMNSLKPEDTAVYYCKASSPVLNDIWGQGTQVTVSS: 10.8
- anti-CI-M6PR VHH6 (VHH, His6-tagged; made in E. coli) VHH: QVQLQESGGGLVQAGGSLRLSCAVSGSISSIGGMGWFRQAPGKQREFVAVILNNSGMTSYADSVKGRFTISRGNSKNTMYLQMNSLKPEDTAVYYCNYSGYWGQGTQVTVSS: 3.35
- anti-CI-M6PR VHH9 (VHH, His6-tagged; made in Pichia pastoris) VHH: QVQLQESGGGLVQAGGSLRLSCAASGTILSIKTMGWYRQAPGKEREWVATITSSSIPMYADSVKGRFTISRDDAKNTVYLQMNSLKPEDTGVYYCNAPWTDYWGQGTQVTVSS: 0.282
